- study_target: human retinoid X receptor alpha (hRXRα) (Homo sapiens)
- Sequence (P19793 whole entry, looked up): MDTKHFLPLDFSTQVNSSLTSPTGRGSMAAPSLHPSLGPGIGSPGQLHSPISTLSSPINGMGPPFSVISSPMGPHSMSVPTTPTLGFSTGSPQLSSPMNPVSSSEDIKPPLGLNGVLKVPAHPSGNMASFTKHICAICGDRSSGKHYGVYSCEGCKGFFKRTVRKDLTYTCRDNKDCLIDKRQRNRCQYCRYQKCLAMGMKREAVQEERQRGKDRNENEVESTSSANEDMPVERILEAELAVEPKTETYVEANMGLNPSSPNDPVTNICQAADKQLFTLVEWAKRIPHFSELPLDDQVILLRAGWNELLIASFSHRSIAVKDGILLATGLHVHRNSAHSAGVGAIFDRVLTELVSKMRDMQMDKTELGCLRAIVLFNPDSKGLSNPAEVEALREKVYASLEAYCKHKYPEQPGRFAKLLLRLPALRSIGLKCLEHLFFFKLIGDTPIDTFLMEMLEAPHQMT
- test: human retinoid X receptor alpha (hRXRα) transactivation assay
- details: Anta = compound exhibited antagonism; read-out: RXRα (Anta)
recorded_endpoint: pIC50
// field semantics: pIC50 = negative decimal log of concentration (mol/L)

Before answering, review these 2 worked examples.
{"columns": ["molecule", "pIC50"],
 "data": [
  ["COc1ccc(OC)c(-c2ncc(S(=O)(=O)c3ccc(C(C)(C)C)cc3)n2C)c1 [LC-70]", 4.79],
  ["COc1ccc(OC)c(-n2nnc(S(=O)(=O)c3ccc(C(C)(C)C)cc3)c2CCl)c1 [LC-64]", 5.24]
]}

Query molecule follows.
## Task Item COc1ccc(O)c(-n2nnc(S(=O)(=O)c3ccc(C(C)(C)C)cc3)c2C)c1 [LC-86] : provide pIC50
## Result 4.69

----------
IC50 for assorted compounds
- study_target: human Liver X receptor beta (hLXRβ) (Homo sapiens, UniProt P55055)
- Sequence (P55055 whole entry, looked up): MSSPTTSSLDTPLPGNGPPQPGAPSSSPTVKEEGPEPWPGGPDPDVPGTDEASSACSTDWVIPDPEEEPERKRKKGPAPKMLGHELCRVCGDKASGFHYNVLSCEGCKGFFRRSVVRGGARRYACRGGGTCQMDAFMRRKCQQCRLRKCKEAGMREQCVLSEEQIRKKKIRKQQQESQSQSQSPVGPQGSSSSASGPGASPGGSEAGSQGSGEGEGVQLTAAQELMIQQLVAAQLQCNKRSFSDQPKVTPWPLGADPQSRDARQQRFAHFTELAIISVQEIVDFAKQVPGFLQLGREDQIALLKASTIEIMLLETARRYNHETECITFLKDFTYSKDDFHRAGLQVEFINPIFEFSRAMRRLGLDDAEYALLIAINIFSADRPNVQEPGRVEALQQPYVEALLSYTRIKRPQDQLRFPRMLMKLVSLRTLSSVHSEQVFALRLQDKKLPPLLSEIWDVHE
- test: human Liver X receptor beta (hLXRβ) transactivation assay
- details: Anta = compound exhibited antagonism; read-out: LXRβ (Anta)

{"columns": ["compound_string", "study_target", "IC50"],
 "data": [
  ["COc1ccc(OC)c(-n2nnc(S(=O)(=O)c3ccc(C(C)(C)C)cc3)c2CCl)c1", "human Liver X receptor beta (hLXRβ) (Homo sapiens, UniProt P55055)", "4.1 µM"]
]}

Proceed to the following item.
## Task Answer with the recorded IC50 for the compound listed here: `COc1ccc(O)c(-n2nnc(S(=O)(=O)c3ccc(C(C)(C)C)cc3)c2C)c1`
## Result 18.9 µM

Data provenance: patent US10550091B2
